Data credit: patent US8013187B2

Entries and their melting point values follow.

In the examples that follow, each entry is paired with its recorded melting point.
MOLECULE | melting point
CCCCCC1=C(c2cccc([N+](=O)[O-])c2)C(=NO)CC1 | 79 to 80 °C
O=[N+]([O-])c1cccc(C2=C(C3CCCCC3)CCC2=NO)c1 | 201 to 202 °C
ON=C1CCC(C2CCCC2)=C1c1ccc2c(c1)OCO2 | 186 to 188 °C
CCCCC1=C(c2ccc(F)cc2)C(=NO)CC1 | 115 to 116 °C
O=[N+]([O-])c1cccc(C2=C(C3CCCC3)CCC2=NO)c1 | 162 to 163 °C
CC1=C(c2ccc(F)cc2)C(=NO)CC1 | 170 to 171 °C
Cc1ccc(C2=C(C3CCCC3)CCC2=NO)cc1[N+](=O)[O-] | 178 to 180 °C
ON=C1CCC(C2CCCC2)=C1c1ccc(F)c(Cl)c1 | 143 to 144 °C
COc1cccc(C2=C(C3CCCCC3)CCC2=NO)c1 | 149 to 150 °C
CCCCC1=C(c2ccc3c(c2)OCO3)C(=NO)CC1 | 116 to 120 °C

Here's the next entry for you.
Suppose we examine the compound CC(C)CC1=C(c2cccc(C#N)c2)C(=NO)CC1 ; what melting point value has been reported? 138 to 140 °C

----------
- TARGET OR SYSTEM: PDE4D (Homo sapiens)
- Construct: purchased Fab Gennix International Inc. (Frisco, Tex./USA)
- Sequence (Q08499 whole entry): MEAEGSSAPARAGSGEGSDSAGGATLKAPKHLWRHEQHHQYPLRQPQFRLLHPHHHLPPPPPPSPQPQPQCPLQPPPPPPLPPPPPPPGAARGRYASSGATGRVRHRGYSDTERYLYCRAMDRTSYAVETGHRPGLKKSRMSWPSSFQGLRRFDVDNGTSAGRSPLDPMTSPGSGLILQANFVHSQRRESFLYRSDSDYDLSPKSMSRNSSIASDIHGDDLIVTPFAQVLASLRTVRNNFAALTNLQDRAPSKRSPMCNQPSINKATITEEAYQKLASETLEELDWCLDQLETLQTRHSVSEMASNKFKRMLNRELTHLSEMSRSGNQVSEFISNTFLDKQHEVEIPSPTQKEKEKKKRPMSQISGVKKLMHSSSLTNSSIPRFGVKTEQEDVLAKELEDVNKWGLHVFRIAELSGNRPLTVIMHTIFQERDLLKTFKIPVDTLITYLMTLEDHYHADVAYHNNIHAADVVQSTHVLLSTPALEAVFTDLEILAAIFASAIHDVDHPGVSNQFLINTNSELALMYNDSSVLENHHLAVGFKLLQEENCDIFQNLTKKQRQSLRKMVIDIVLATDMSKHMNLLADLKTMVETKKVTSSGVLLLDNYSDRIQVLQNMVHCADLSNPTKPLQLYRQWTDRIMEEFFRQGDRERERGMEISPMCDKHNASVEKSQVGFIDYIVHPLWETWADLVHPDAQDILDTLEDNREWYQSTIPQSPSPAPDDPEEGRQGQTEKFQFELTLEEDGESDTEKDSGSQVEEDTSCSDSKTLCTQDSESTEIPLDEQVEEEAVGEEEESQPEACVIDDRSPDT
- ASSAY NOTES: Inhibition of PDE4 isozymes ([3H]cAMP SPA): PDE4D
- Assay type: biochemical
- CONDITIONS USED: @ 0.1 μg/ml, pH 7.4 Tris buffer
READOUT NAME: inhibition at 0.1 µg/mL (%)

In the examples that follow, each entry is paired with its recorded inhibition at 0.1 µg/mL.
MOLECULE | inhibition at 0.1 µg/mL / %
ON=C1CCC(C2CCCC2)=C1c1ccc(F)c(Cl)c1 | 78
ON=C1CCC(C2CCCC2)=C1c1ccc2c(c1)OCO2 | 38
ON=C1CCC(C2CCCC2)=C1c1ccc(F)cc1 | 79

P: ON=C1CCC(C2CCCCC2)=C1c1ccc(F)c(Cl)c1
Q: CCCC1=C(c2ccc(F)c(F)c2)C(=NO)CC1
Among P and Q , which shows a numerically higher inhibition at 0.1 µg/mL result? Answer format: the label of the selected item. P
(P: 87%, Q: 23%)

----------
Entries and their melting point values follow.

In the examples that follow, each entry is paired with its recorded melting point.
COMPOUND | melting point
CCCCCCCCCc1ccc(C2=C(CC(C)C)CCC2=NO)cc1F [Example 90] | 85 to 86 °C
CCCC1=C(c2ccc(F)cc2)C(=NO)CC1 [Example 78] | 165 to 166 °C
CCCCCC1=C(c2ccc(F)cc2)C(=NO)CC1 [Example 65] | 101 to 102 °C
CCCCC1=C(c2ccc(O)c(F)c2)C(=NO)CC1 [Example 41] | 141 to 147 °C
ON=C1CCC(C2CCCC2)=C1c1ccc(F)cc1 [Example 1] | 204 to 205 °C

Suppose we examine the compound N#Cc1cccc(C2=C(C3CCCC3)CCC2=NO)c1 [Example 12] ; what melting point value has been reported? 180 to 182 °C

Suppose we examine the compound CC(C)CC1=C(c2ccc(F)c(F)c2)C(=NO)CC1 [Example 86] ; what melting point value has been reported? 136 to 139 °C

Suppose we examine the compound ON=C1CCC(C2CCCCC2)=C1c1ccc(F)cc1 [Example 27] ; what melting point value has been reported? 173 to 176 °C

Suppose we examine the compound ON=C1CCC(C2CCCC2)=C1c1ccc(F)c(F)c1 [Example 2] ; what melting point value has been reported? 173 to 174 °C

Suppose we examine the compound OCc1ccc(C2=C(C3CCCC3)CCC2=NO)cc1 [Example 26] ; what melting point value has been reported? 187 to 190 °C

Suppose we examine the compound CCCCCC1=C(c2ccccc2)C(=NO)CC1 [Example 66] ; what melting point value has been reported? 110 to 111 °C

Suppose we examine the compound ON=C1CCC(C2CCCC2)=C1c1cccc(O)c1 [Example 24] ; what melting point value has been reported? 207 to 209 °C

Suppose we examine the compound CS(=O)(=O)c1cccc(C2=C(C3CCCC3)CCC2=NO)c1 [Example 23] ; what melting point value has been reported? 164 to 165 °C

Suppose we examine the compound N#Cc1cc(C2=C(C3CCCC3)CCC2=NO)ccc1F [Example 13] ; what melting point value has been reported? 167 to 168 °C

----------
- System: production of TNF-α in mice stimulated with LPS
- ASSAY NOTES: In vivo inhibition of TNF-α production in mice stimulated with LPS
- CONDITIONS USED: Mus musculus, 2 h, 3 mg/kg oral gavage, LPS i.p., plasma at hour 2, read-out: % Inhibition of in vivo TNF-α production @ dose
Entries and their inhibition in vivo at 3 mg/kg values follow.
Please state the figure in %; there is no need to write the unit.

COMPOUND | TARGET OR SYSTEM | TEST RESULT
COc1cccc(C2=C(C3CCCCC3)CCC2=NO)c1 [Example 32] | production of TNF-α in mice stimulated with LPS | 92
ON=C1CCC(C2CCCCC2)=C1c1ccc(F)c(Cl)c1 [Example 28] | production of TNF-α in mice stimulated with LPS | 88
CCCC1=C(c2cccc([N+](=O)[O-])c2)C(=NO)CC1 [Example 80] | production of TNF-α in mice stimulated with LPS | 95
CCCC1=C(c2ccc(F)c(F)c2)C(=NO)CC1 [Example 79] | production of TNF-α in mice stimulated with LPS | 85
ON=C1CCC(C2CCCCC2)=C1c1ccc(F)cc1 [Example 27] | production of TNF-α in mice stimulated with LPS | 87

Suppose we examine the compound ON=C1CCC(C2CCCC2)=C1c1ccc(F)cc1 [Example 1] ; what inhibition in vivo at 3 mg/kg value has been reported? 72

Suppose we examine the compound CCCCCC1=C(c2ccccc2)C(=NO)CC1 [Example 66] ; what inhibition in vivo at 3 mg/kg value has been reported? 45

----------
Entries and their IC50 values follow.
- System: production of TNF-α in rat PBMCs
- ASSAY NOTES: Inhibition of TNF-α production in rat PBMCs (LPS/IFN-γ stimulated, ELISA)
- Assay type: cell-based
- CONDITIONS USED: PBMC; rat PBMCs, LPS + IFN-γ, 18 hours
Please state the figure in µg/mL; there is no need to write the unit.

In the examples that follow, each entry is paired with its recorded IC50.
MOLECULE | READOUT NAME | TEST RESULT
N#Cc1cc(C2=C(C3CCCC3)CCC2=NO)ccc1F | IC50 | 0.4
CCCCCC1=C(c2ccsc2)C(=NO)CC1 | IC50 | 2.8

Here's the next entry for you.
Suppose we examine the compound CCCC1=C(c2ccc(F)c(F)c2)C(=NO)CC1 ; what IC50 value has been reported? 0.18

----------
- TARGET OR SYSTEM: PDE4A (Homo sapiens)
- Construct: purchased Fab Gennix International Inc. (Frisco, Tex./USA)
- Sequence (P27815 whole entry): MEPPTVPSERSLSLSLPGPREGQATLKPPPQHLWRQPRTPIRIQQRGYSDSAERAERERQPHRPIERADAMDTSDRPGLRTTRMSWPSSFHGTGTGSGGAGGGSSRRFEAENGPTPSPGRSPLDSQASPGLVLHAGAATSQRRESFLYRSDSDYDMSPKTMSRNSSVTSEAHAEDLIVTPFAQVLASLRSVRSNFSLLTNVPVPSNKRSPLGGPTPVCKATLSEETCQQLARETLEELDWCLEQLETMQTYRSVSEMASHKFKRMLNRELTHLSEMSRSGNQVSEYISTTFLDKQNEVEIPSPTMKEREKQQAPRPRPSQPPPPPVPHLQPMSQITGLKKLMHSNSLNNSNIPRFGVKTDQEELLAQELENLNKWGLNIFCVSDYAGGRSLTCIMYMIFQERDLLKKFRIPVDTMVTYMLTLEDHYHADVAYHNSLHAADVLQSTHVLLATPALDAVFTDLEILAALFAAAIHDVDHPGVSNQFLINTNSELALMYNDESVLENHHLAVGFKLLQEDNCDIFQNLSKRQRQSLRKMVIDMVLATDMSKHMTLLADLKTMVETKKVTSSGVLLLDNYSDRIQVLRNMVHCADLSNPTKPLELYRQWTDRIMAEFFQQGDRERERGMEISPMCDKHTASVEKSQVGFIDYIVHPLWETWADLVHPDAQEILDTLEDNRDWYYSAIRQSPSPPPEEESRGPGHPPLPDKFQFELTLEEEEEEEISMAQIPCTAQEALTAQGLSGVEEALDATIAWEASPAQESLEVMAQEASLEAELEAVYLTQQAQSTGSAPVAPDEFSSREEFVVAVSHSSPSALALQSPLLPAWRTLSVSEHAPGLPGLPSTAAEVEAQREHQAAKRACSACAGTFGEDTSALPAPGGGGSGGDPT
- ASSAY NOTES: Inhibition of PDE4 isozymes ([3H]cAMP SPA): PDE4A
- Assay type: biochemical
- CONDITIONS USED: @ 0.5 μg/ml, pH 7.4 Tris buffer
READOUT NAME: inhibition at 0.5 µg/mL (%)

In the examples that follow, each entry is paired with its recorded inhibition at 0.5 µg/mL.
MOLECULE | TARGET OR SYSTEM | inhibition at 0.5 µg/mL (%)
ON=C1CCC(C2CCCCC2)=C1c1ccc(F)c(Cl)c1 | PDE4A (Homo sapiens) | 58
ON=C1CCC(C2CCCC2)=C1c1ccc2c(c1)OCO2 | PDE4A (Homo sapiens) | 33
ON=C1CCC(C2CCCC2)=C1c1ccc(F)c(Cl)c1 | PDE4A (Homo sapiens) | 89

P: CCCC1=C(c2ccc(F)c(F)c2)C(=NO)CC1
Q: ON=C1CCC(C2CCCC2)=C1c1ccc(F)cc1
Between item P and item Q , which reported inhibition at 0.5 µg/mL is smaller? Answer format: the label of the selected item. P
(P: 0%, Q: 72%)

----------
- Tested on: production of TNF-α in rat PBMCs
- ASSAY NOTES: Inhibition of TNF-α production in rat PBMCs (LPS/IFN-γ stimulated, ELISA)
- Type: cell-based
- CONDITIONS USED: PBMC; rat PBMCs, LPS + IFN-γ, 18 hours
Entries and their IC50 values follow.
Please state the figure in µg/mL; there is no need to write the unit.

MOLECULE | TEST RESULT
CCCC1=C(c2ccc(F)cc2)C(=NO)CC1 | 0.62

Suppose we examine the molecule CCCCC1=C(c2ccc3c(c2)OCO3)C(=NO)CC1 ; what IC50 value has been reported? 0.69

Suppose we examine the molecule ON=C1CCC(C2CCCC2)=C1c1ccc(F)c(Cl)c1 ; what IC50 value has been reported? 0.053
